Data credit: patent US7691572B2

- Measurement target: HIV-1 RT (Human immunodeficiency virus type 1, UniProt P04585, F664L/S655G/V662I, form not given)
- Experimental setup: read-out: IC50 Amp-RT assay; patient-derived virus 15 (L6), S68G, V75I, F77L, K103N, F116Y, Q151M, M184V
Quantity kind: pIC50
Value format note: pIC50 is -log10 of concentration (mol/L); just state the number.

Data request: Consider the molecule `Cc1cn([C@H]2C[C@H](N=[N+]=[N-])[C@@H](CO)O2)c(=O)[nH]c1=O` and give its measured pIC50.
Data returned: 4.83

###

- Measurement target: HIV-1 RT (Human immunodeficiency virus type 1, UniProt P04585, F664L/F703Y/Q738M)
- Measurement notes: Amp-RT assay, AZT-TP and other NRTI-TPs, reference viruses
- Format: biochemical
Quantity kind: pIC50
Interpret pIC50 as the negative base-10 log of the concentration measured in mol/L.

Data request: // pIC50 lookup, key: `Cc1cn([C@H]2C[C@H](N=[N+]=[N-])[C@@H](CO)O2)c(=O)[nH]c1=O`
Data returned: 4.96

###

- Tested on: HIV-1 RT
- Measurement notes: Amp-RT assay, AZT-TP and other NRTI-TPs, reference viruses
- Format: biochemical
- Experimental setup: MNR HIV-1SUM8 (Q151M)
Quantity kind: pIC50
# pIC50: negative log10 of molar concentration; output just the value

Worked examples, 4 compounds total:
Compound: Cc1cn([C@H]2C=C[C@@H](COP(=O)(O)OP(=O)(O)OP(=O)(O)O)O2)c(=O)[nH]c1=O
pIC50: 6.49

Compound: Nc1ncnc2c1ncn2[C@H]1CC[C@@H](COP(=O)(O)OP(=O)(O)OP(=O)(O)O)O1
pIC50: 5.92

Compound: Cc1cn([C@H]2C[C@H](N=[N+]=[N-])[C@@H](COP(=O)(O)OP(=O)(O)OP(=O)(O)O)O2)c(=O)[nH]c1=O [AZT-TP, AZT-triphosphate]
pIC50: 5.60

Compound: Nc1ccn([C@@H]2CS[C@H](COP(=O)(O)OP(=O)(O)OP(=O)(O)O)O2)c(=O)n1 [3TC-TP, 3TC-5′-triphosphate]
pIC50: 6.05

Please turn your attention to the following entry.
Data request: Name the recorded pIC50 for Nc1ccn([C@H]2CC[C@@H](COP(=O)(O)OP(=O)(O)OP(=O)(O)O)O2)c(=O)n1 [ddC-TP, ddC-triphosphate] .
Data returned: 5.74

###

- System: HIV-1 RT
- Measurement notes: Amp-RT assay, AZT-TP and other NRTI-TPs, reference viruses
- Assay type: biochemical
- Experimental setup: MNR HIV-1SUM12 (F77L, F116Y, Q151M)
Quantity kind: pIC50
Please treat pIC50 as minus the base-10 logarithm of the molar concentration.

Data request: // returns reported pIC50 for input Nc1ccn([C@@H]2CS[C@H](COP(=O)(O)OP(=O)(O)OP(=O)(O)O)O2)c(=O)n1 [3TC-TP, 3TC-5′-triphosphate]
Data returned: 5.57

Data request: pIC50 lookup needed for Nc1ccn([C@H]2CC[C@@H](COP(=O)(O)OP(=O)(O)OP(=O)(O)O)O2)c(=O)n1 [ddC-TP, ddC-triphosphate] , thanks.
Data returned: 5.22

Data request: If you can, please state the reported pIC50 value of Cc1cn([C@H]2C[C@H](N=[N+]=[N-])[C@@H](COP(=O)(O)OP(=O)(O)OP(=O)(O)O)O2)c(=O)[nH]c1=O [AZT-TP, AZT-triphosphate] .
Data returned: 4.96

Data request: Recorded pIC50 of Nc1ncnc2c1ncn2[C@H]1CC[C@@H](COP(=O)(O)OP(=O)(O)OP(=O)(O)O)O1 [ddA-TP] , please.
Data returned: 5.96

Data request: Return reported pIC50; argument: Cc1cn([C@H]2C=C[C@@H](COP(=O)(O)OP(=O)(O)OP(=O)(O)O)O2)c(=O)[nH]c1=O [d4T-TP]
Data returned: 6.43

###

- Measurement target: HIV-1 RT (Human immunodeficiency virus type 1, UniProt P04585, Q738M/S655G)
- Experimental setup: read-out: IC50 Amp-RT assay; patient-derived virus 13 (L2), S68G, Q151M
Quantity kind: IC50 (nM)
Form entry: value (nM) — number only.

Data request: What IC50 value was documented for this compound, Cc1cn([C@H]2C[C@H](N=[N+]=[N-])[C@@H](CO)O2)c(=O)[nH]c1=O [AZT, zidovudine] ?
Data returned: 1350

###

- Measurement target: HIV-1 RT (Human immunodeficiency virus type 1, UniProt P04585, Q738M)
- Measurement notes: Amp-RT assay, AZT-TP and other NRTI-TPs, reference viruses
Quantity kind: IC50
Record the result as a number with its unit.

Data request: Any idea what IC50 was measured for `Cc1cn([C@H]2C[C@H](N=[N+]=[N-])[C@@H](CO)O2)c(=O)[nH]c1=O` ?
Data returned: 2500 nM
